Test: qHTS assay for small molecule agonists of the antioxidant response element (ARE) signaling pathway (AID 651741); as to activation: % of control where 0% means no effect
Conditions: HepG2 ARE-bla reporter, beta-lactamase FRET ratio, 16 h; series mostly up to 96 µM
Inconclusive results are not listed. Calls of active or inactive are those of the source. Calls follow the shape of the dose curve; as a rule, active = well fitted activation curve with a large enough effect in the signal ratio; inconclusive = small, poorly fitted or top-dose-only effect, or effect the other way, or a change in a side signal; inactive = flat fitted curve, though single readings scatter; the % refers to the signal ratio.
Hello, when you answer, please use one of the following outcomes: active, inactive

Reference set (5 entries):
N#CCc1ccccc1[N+](=O)[O-] ... active
CC1CCCO1 (centres undefined) ... inactive
CCC(C)=O ... inactive
C1CCCC1 ... inactive
CNC(=O)c1ccccc1 ... inactive

Qu. For CC(C)Nc1ccccc1 , which call appears in the assay record?
Ans. inactive

Qu. For O=Cc1ccccc1Cl , which call appears in the assay record?
Ans. inactive

Qu. For Nc1cc(Cl)c(N)c(Cl)c1 , which call appears in the assay record?
Ans. active

Qu. For NC(N)=S , which call appears in the assay record?
Ans. inactive

Qu. For CC(C)C=O , which call appears in the assay record?
Ans. inactive

Qu. For CC(C)=CCl , which call appears in the assay record?
Ans. inactive

Qu. For CCCCOCCOCCSC#N , which call appears in the assay record?
Ans. inactive

Qu. For Cc1cc(C)cc(O)c1 , which call appears in the assay record?
Ans. inactive

Qu. For CCOCCOCC , which call appears in the assay record?
Ans. inactive

Qu. For CC1(N)CCC(C(C)(C)N)CC1 (centres undefined) , which call appears in the assay record?
Ans. inactive

Qu. For OC1CCCC1 , which call appears in the assay record?
Ans. inactive

Qu. For CC(=O)CC(C)C , which call appears in the assay record?
Ans. inactive

Qu. For Cc1ccc(C)c(O)c1 , which call appears in the assay record?
Ans. inactive

Qu. For Cc1ccc(S(=O)(=O)NC2CCCCC2)cc1 , which call appears in the assay record?
Ans. inactive

====

Test: Cell Viability - LYMP2-018 (AID 985);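 also: compound exposure lasted 24 hr at 37 °C; plate controls were DMSO only for no effect and tetraoctylammonium bromide at 92 µM for full effect; nearly all actives have a fitted effect of over 50% in size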
Conditions: LYMP2-018 lymphoblastoid cells, viability (qHTS); series mostly up to 92.2 µM
Results filed as inconclusive are left out. Active and inactive are the calls of the source. Calls come from the whole dose curve; as a rule, active = well fitted cell-killing curve with a large enough effect; inconclusive = small, poorly fitted or top-dose-only effect; inactive = flat fitted curve, though single readings scatter.
Hello, when you answer, please use one of the following outcomes: active, inactive

Reference set (8 entries):
Cc1ccc(C)c(N)c1 ... inactive
Nc1cccc(S(=O)(=O)O)c1 ... inactive
Cc1ccc(S(=O)(=O)NC2CCCCC2)cc1 ... inactive
CCCCN(CCO)CCCC ... inactive
O=[N+]([O-])c1cccc(C(F)(F)F)c1 ... inactive
CC(=O)Nc1ccccc1C ... inactive
CC(O)COC(C)(C)C (stereo unspecified) ... inactive
Nc1ccc([N+](=O)[O-])c(N)c1 ... inactive

# evaluate next
Qu. For CC(=O)C1(C)CC2=C(CCCC2(C)C)CC1C (stereo unspecified) , which call appears in the assay record?
Ans. inactive

====

Target: Retinoic acid receptor RXR-alpha (Homo sapiens) (UniProt P19793)
Sequence (P19793 whole entry, looked up): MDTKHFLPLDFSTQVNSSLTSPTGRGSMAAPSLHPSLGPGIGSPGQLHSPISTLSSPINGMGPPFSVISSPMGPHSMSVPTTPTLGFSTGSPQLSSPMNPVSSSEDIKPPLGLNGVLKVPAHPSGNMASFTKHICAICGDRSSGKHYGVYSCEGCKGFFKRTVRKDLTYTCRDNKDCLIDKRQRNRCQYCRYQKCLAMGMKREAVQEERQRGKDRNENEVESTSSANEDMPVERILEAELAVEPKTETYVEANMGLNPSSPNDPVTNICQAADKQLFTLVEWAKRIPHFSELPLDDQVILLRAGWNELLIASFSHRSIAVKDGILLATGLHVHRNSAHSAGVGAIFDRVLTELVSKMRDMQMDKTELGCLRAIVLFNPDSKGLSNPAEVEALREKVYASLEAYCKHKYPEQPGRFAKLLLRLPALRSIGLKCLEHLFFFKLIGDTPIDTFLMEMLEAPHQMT
Assay: qHTS assay for small molecule antagonists of retinoid X receptor alpha signaling (AID 588546);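 also: cells stimulated with 9-cis-retinoic acid as agonist; % is scaled to controls: 0 for no effect and ±100 for the full control effect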
Details: HEK293T RXRa-UAS-bla, beta-lactamase ratio, antagonist mode
Results filed as inconclusive are left out.
Property Name: max response (%)
Unit % implied. Number only.

Answered examples (10):
O=Cc1ccc(CO)o1 ... 8.3
N#CCc1ccccc1[N+](=O)[O-] ... -6.12
CCOC(C)(C)C ... 3.08
CCCOCC(C)O (centres undefined) ... 0.524
O=[N+]([O-])c1cc(C(F)(F)F)ccc1Cl ... -6.84
NC(=O)c1cccc([N+](=O)[O-])c1 ... -6.67
Cc1ccc(CO)cc1 ... 0.12
Cc1cc(C2(c3cc(C)c(O)cc3C)OS(=O)(=O)c3ccccc32)c(C)cc1O ... 0.408
CCCC(Cl)CCCC(Cl)CCC(Cl)CCC(Cl)CCC(Cl)CCCC(Cl)CCC (centres undefined) ... -10.6
C=C(C)C(=O)OCCCCCCCCCC ... -3.36

Qu. Fill in the recorded max response for this compound, with Retinoic acid receptor RXR-alpha (Homo sapiens) (UniProt P19793) as test system: Cc1ccc(C#N)cc1
Ans. 0.597

Qu. Fill in the recorded max response for this compound, with Retinoic acid receptor RXR-alpha (Homo sapiens) (UniProt P19793) as test system: CSc1ccc(C=O)cc1
Ans. 1.67

Qu. Fill in the recorded max response for this compound, with Retinoic acid receptor RXR-alpha (Homo sapiens) (UniProt P19793) as test system: CC(=O)CC(C)C
Ans. 12.3

Qu. Fill in the recorded max response for this compound, with Retinoic acid receptor RXR-alpha (Homo sapiens) (UniProt P19793) as test system: CC(O)COC(C)(C)C (centres undefined)
Ans. -2.68

Qu. Fill in the recorded max response for this compound, with Retinoic acid receptor RXR-alpha (Homo sapiens) (UniProt P19793) as test system: CC#N
Ans. 10.2

Qu. Fill in the recorded max response for this compound, with Retinoic acid receptor RXR-alpha (Homo sapiens) (UniProt P19793) as test system: C[C@@H]1O[C@@H](O[C@@H]2[C@@H](O)[C@H](OCCc3ccc(O)c(O)c3)O[C@H](CO[C@@H]3O[C@H](CO)[C@@H](O)[C@H](O)[C@H]3O)[C@H]2OC(=O)/C=C/c2ccc(O)c(O)c2)[C@H](O)[C@H](O)[C@H]1O
Ans. -6.94
